Assay: NCI Yeast Anticancer Drug Screen. Data for the sgs1 mgt1 strain (AID 161)
Conditions: S. cerevisiae sgs1 mgt1 strain, at 50.0 µM (retest, dose inferred, filed as 5.0)
Compounds without any hit were thinned out: in the full panel of roughly 79,000, 15% have a hit. Active and inactive are the calls of the source. Cut-off read from the data, not from the text of the source: active = growth inhibition above about 70%; inactive = the rest.
Outcome codes: TRUE = active, FALSE = inactive

- CCN1/C(=C\c2cc[n+](CC)c3ccccc23)C=Cc2ccccc21: TRUE
- CCOC1=C(NC(C)=O)C(=O)c2ccccc2C1=O: TRUE
- COC1C=COC2(C)Oc3c(C)c(O)c4c(O)c(c(C5SCCS5)c(O)c4c3C2=O)NC(=O)/C(C)=C\C=CC(C)C(O)C(C)C(O)C(C)C(OC(C)=O)C1C (stereo not drawn): FALSE
- CCCCCCCCCN(CCCCCCCCC)CC(O)c1cc2c(c3ccccc13)CCCC2 (stereo not drawn): TRUE
- O=C(O)[C@@H]1CCCC[C@@H]1C(=O)N(C1CCCCC1)C1CCCCC1: TRUE
- CCOC(=N)CCCSSc1ccc(N=[N+]=[N-])cc1: TRUE
- NC(=S)N/N=C\c1nccc2c(C(F)(F)C(F)(F)C(F)(F)F)cccc12: FALSE
- C[CH2][Sn]([CH2]C)([O]C(=O)c1cccc(OC)c1)[O][Sn]([CH2]C)([CH2]C)[O]C(=O)c1cccc(OC)c1: TRUE
- CCCCNCCCCCCCCCCCl: TRUE
- CC1=NC2=NC(CCCC(=O)OCc3ccc(Cl)c(Cl)c3)=NC3=CC=CC(=N1)N32: FALSE
- C[C@H](CCC(=O)O)[C@H]1CC[C@H]2[C@@H]3[C@@H](O)C[C@@H]4C[C@H](O)CC[C@]4(C)[C@H]3CC[C@]12C: TRUE
- O=C(/C=C\c1ccccc1)N1c2ccccc2CC1c1c[nH]c2ccccc12 (stereo not drawn): FALSE
- CC(=O)Nc1ccc(C(=O)n2[nH]c(C)c(/C=C3\C(=O)C=Cc4ccccc43)c2=O)cc1: TRUE
- O=[N+]([O-])c1ccc(NSc2ccccc2)cc1: TRUE
- Cc1c(Cl)nc(-c2ccccc2)nc1C(=O)CCl: TRUE
- C=C1CC(Cn2ccc(=O)[nH]c2=O)(c2ccc(Cl)cc2)OC1=O (stereo not drawn): TRUE
- C/C=C(/CN/C(=C\[N+](=O)[O-])c1ccccc1)c1ccccc1: TRUE
- CCOC(=O)c1c(C)[nH]c(C(c2ccccc2)c2[nH]c(C)c(C(=O)OCC)c2C)c1C: FALSE
- CCOC(=O)C1SC(=Nc2ccc(Cl)cc2)N=C1C (stereo not drawn): TRUE
- S=C(NC(=S)Nc1ccc(Cl)cc1)Nc1ccc(Cl)cc1: FALSE
- OCc1cccc2c1Oc1ccccc1S2: FALSE
- COc1cc2c(cc1OC)C(Cl)C(c1ccc(F)cc1)=C2Cl (stereo not drawn): FALSE
- NNC(=S)NN/C=C(\C=Nc1ccccc1)[N+](=O)[O-]: FALSE
- CSc1ncnc2ncn(C3OC(CO)C(O)C3O)c12 (stereo not drawn): FALSE
- c1ccc2c(c1)Nc1ccccc1[P+]21c2ccccc2Nc2ccccc21: TRUE
- COc1ccc2nc3cc([N+](=O)[O-])ccc3c(NNc3ccc([N+](=O)[O-])cc3)c2c1: FALSE
- O=C(CCl)Oc1c(Br)cc(-c2ccccc2)cc1Br: TRUE
- CC1C=C(COC(=O)Nc2ccccc2)ON1c1ccccc1 (stereo not drawn): TRUE
